The measured values listed here are drawn from patent US6335350B1.

System: VZV strain Ellen
Test: VZV Antiviral (ELISA) Assay
Format: cell-based, varicella-zoster virus
Settings: Human alphaherpesvirus 3, Fibroblast, read-out: % inhibition 10 ug/ml VZV, 10 ug/ml; human foreskin fibroblast cells
Given measured inhibition at 10 µg/mL, output t if it is greater than or equal to 30% and f if not.

- compound: "CC(=O)Nc1ccc(NC(=S)Nc2ccc(NCCCN(C)C)c(Cl)c2)cc1"
  classification: "f"
- compound: "CC(=O)Nc1ccc(NC(=S)Nc2ccc(Oc3ccc(Cl)cc3S(=O)(=O)O)c(Cl)c2)cc1"
  classification: "f"
- compound: "CC(=O)Nc1ccc(NC(=S)Nc2ccc(NC3CCN(Cc4ccccc4)C3)c(Cl)c2)cc1 (centres unmarked)"
  classification: "t"
- compound: "CC(=O)Nc1ccc(NC(=S)Nc2ccc(Oc3cc(Cl)c(Cl)cc3S(=O)(=O)O)c(Cl)c2)cc1"
  classification: "f"
- compound: "CC(=O)Nc1ccc(NC(=S)Nc2ccc(NC(=O)CSCCN(C)C)c(Cl)c2)cc1"
  classification: "t"
- compound: "COc1cc(OC)c(NC(=S)Nc2ccc(NC(C)=O)nc2)cc1Cl"
  classification: "t"
- compound: "COc1cc(N2CCOCC2)c(NC(=S)Nc2ccc(NC(C)=O)cc2)cc1Cl"
  classification: "t"
- compound: "CC(=O)Nc1ccc(NC(=S)Nc2cc(Cl)c(O)c(Cl)c2C)cc1"
  classification: "f"
- compound: "CC(=O)Nc1ccc(NC(=S)Nc2ccc(NC(=O)CN3CCOCC3)c(Cl)c2)cc1"
  classification: "f"
- compound: "COc1cc(NCc2ccccc2)c(NC(=S)Nc2ccc(NC(C)=O)cc2)cc1Cl"
  classification: "t"
- compound: "COc1cc(OCC(=O)OC(C)(C)C)c(Cl)cc1NC(=S)Nc1ccc(NC(C)=O)cc1"
  classification: "f"
- compound: "CC(=O)Nc1ccc(NC(=S)Nc2cccc(Cl)c2Cl)cc1"
  classification: "f"
- compound: "CC(=O)Nc1ccc(NC(=S)Nc2ccc(NC3CCN(Cc4ccccc4)CC3)c(Cl)c2)cc1"
  classification: "t"
- compound: "CC(=O)Nc1ccc(NC(=S)Nc2ccc(OCCO)c(Cl)c2)cc1"
  classification: "f"
- compound: "COc1cc(O)c(Cl)cc1NC(=S)Nc1ccc(NC(C)=O)cc1"
  classification: "f"
- compound: "COc1cc(OC)c(NC(=S)Nc2ccc(NC(C)=O)c3ccccc23)cc1Cl"
  classification: "t"
- compound: "COc1cc(OCCO)c(NC(=S)Nc2ccc(NC(C)=O)cc2)cc1Cl"
  classification: "f"
- compound: "COc1cc(OCC(=O)OC(C)(C)C)c(NC(=S)Nc2ccc(NC(C)=O)cc2)cc1Cl"
  classification: "f"
- compound: "CC(=O)Nc1ccc(NC(=S)Nc2ccc(NC3CCCCC3)c(Cl)c2)cc1"
  classification: "t"
- compound: "CC(=O)Nc1ccc(NC(=S)Nc2cc(Cl)c(OCCOC(C)=O)c(Cl)c2)cc1"
  classification: "t"
- compound: "CC(=O)Nc1ccc(NC(=S)Nc2cc(C(F)(F)F)ccc2Cl)cc1"
  classification: "t"
- compound: "CSc1ccc(NC(=S)Nc2ccc(NC(C)=O)cc2)cc1Cl"
  classification: "f"
- compound: "COc1cc(OC)c(NC(=S)Nc2ccc(NC(C)=O)c(C)c2)cc1Cl"
  classification: "f"
- compound: "COc1cc(OCc2ccccc2)c(Cl)cc1NC(=S)Nc1ccc(NC(C)=O)cc1"
  classification: "t"
- compound: "COc1cc(OC)c(NC(=S)Nc2cccc(NC(C)=O)c2)cc1Cl"
  classification: "f"
- compound: "COc1ccc(NC(=S)Nc2ccc(NC(C)=O)cc2)c(OC)n1"
  classification: "f"
- compound: "CC(=O)Nc1ccc(NC(=S)Nc2ccc(N3CCCC4CCCCC43)c(Cl)c2)cc1 (centres unmarked)"
  classification: "t"
- compound: "CCCCOc1cc(OC)c(NC(=S)Nc2ccc(NC(C)=O)cc2)cc1Cl"
  classification: "t"
- compound: "CC(=O)Nc1ccc(NC(=S)Nc2ccc(C(=O)O)c(Cl)c2)cc1"
  classification: "f"
- compound: "COc1cc(OC)c(NC(=S)Nc2cc(OC)c(NC(C)=O)cc2C)cc1Cl"
  classification: "f"
- compound: "CC(=O)Nc1ccc(NC(=S)Nc2cc(Cl)cc(Cl)c2)cc1"
  classification: "f"
- compound: "COc1cc(OC)c(NC(=S)Nc2ccc(NC(C)=O)c(C(F)(F)F)c2)cc1Cl"
  classification: "t"
- compound: "COc1cc(OC)c(NC(=S)Nc2ccc(NC(C)=O)cc2)cc1I"
  classification: "t"
- compound: "CC(=O)Nc1ccc(NC(=S)Nc2ccc(Cl)c(C(F)(F)F)c2)cc1"
  classification: "t"

* * *

The entries below come with measured IC50 values attached.
Test system: HSV-1
Assay: HSV Antiviral (ELISA) Assay
Format: cell-based, herpes simplex virus type 1
Conditions: Human alphaherpesvirus 1, Vero, Vero cells, HSV-1; read-out: IC50 Ug/ml HSV

- compound: "CCN(c1ccc(NC(=S)Nc2ccc(NC(C)=O)cc2)cc1Cl)C1CCCCC1 [Example 267]"
  limit-sign: ">"
  IC50 (µg/mL): 10
- compound: "COc1cc(O)c(Cl)cc1NC(=S)Nc1ccc(NC(C)=O)cc1 [Example 223]"
  limit-sign: "="
  IC50 (µg/mL): 14
- compound: "COc1cc(OC)c(NC(=S)Nc2cc(OC)c(NC(C)=O)cc2C)cc1Cl [Example 285]"
  limit-sign: ">"
  IC50 (µg/mL): 50
- compound: "COc1c(C)cc(NC(=S)Nc2ccc(NC(C)=O)cc2)cc1Cl [Example 877]"
  limit-sign: "="
  IC50 (µg/mL): 30
- compound: "CC(=O)Nc1ccc(NC(=S)Nc2ccc(OC(=O)c3ccccc3)cc2O)cc1 [Example 113]"
  limit-sign: "="
  IC50 (µg/mL): 50
- compound: "CC(=O)Nc1ccc(NC(=S)Nc2ccc(N(C)C3CCN(C)C3)c(Cl)c2)cc1 (stereo not drawn) [Example 845]"
  limit-sign: "="
  IC50 (µg/mL): 20
- compound: "COc1cc(OCC#N)c(Cl)cc1NC(=S)Nc1ccc(NC(C)=O)cc1 [Example 212]"
  limit-sign: ">"
  IC50 (µg/mL): 50
- compound: "CC(=O)Nc1ccc(NC(=S)Nc2ccc(N(C)C)c(Cl)c2)cc1 [Example 240]"
  limit-sign: ">"
  IC50 (µg/mL): 50
- compound: "CC(=O)Nc1ccc(NC(=S)Nc2ccc(C)c(Cl)c2)cc1 [Example 889]"
  limit-sign: "="
  IC50 (µg/mL): 2
- compound: "CC(=O)Nc1ccc(NC(=S)Nc2cc(Cl)ccc2C)cc1 [Example 890]"
  limit-sign: "="
  IC50 (µg/mL): 20
- compound: "COc1cc(OCC(=O)OC(C)(C)C)c(NC(=S)Nc2ccc(NC(C)=O)cc2)cc1Cl [Example 218]"
  limit-sign: "="
  IC50 (µg/mL): 15
- compound: "CC(=O)Nc1ccc(NC(=S)Nc2cc(Cl)ccc2O)cc1 [Example 126]"
  limit-sign: "="
  IC50 (µg/mL): 30
- compound: "CC(NC(=S)Nc1ccc(NC(=O)Cc2ccccc2)cc1)c1ccc(F)cc1 (stereo not drawn) [Example 751]"
  limit-sign: ">"
  IC50 (µg/mL): 10
- compound: "CC(=O)Nc1ccc(NC(=S)Nc2ccc(N3CCN(C)CC3)c(Cl)c2)cc1 [Example 243]"
  limit-sign: ">"
  IC50 (µg/mL): 50
- compound: "COc1cc(OC)c(NC(=S)Nc2ccc(NC(C)=O)cc2)cc1Br [Example 150]"
  limit-sign: "="
  IC50 (µg/mL): 9
- compound: "CC(=O)Nc1ccc(NC(=S)Nc2ccc(NC3CCCCC3)c(Cl)c2)cc1 [Example 299]"
  limit-sign: ">"
  IC50 (µg/mL): 10
- compound: "COc1cc(OCC(N)=O)c(Cl)cc1NC(=S)Nc1ccc(NC(C)=O)cc1 [Example 838]"
  limit-sign: ">"
  IC50 (µg/mL): 50
- compound: "COc1ccc(NC(=S)Nc2ccc(NC(C)=O)cc2)c(OC)c1 [Example 103]"
  limit-sign: "="
  IC50 (µg/mL): 25
- compound: "COc1cc(N2CCOCC2)c(NC(=S)Nc2ccc(NC(C)=O)cc2)cc1Cl [Example 226]"
  limit-sign: ">"
  IC50 (µg/mL): 50
- compound: "COc1cc(C)c(Cl)cc1NC(=S)Nc1ccc(NC(C)=O)cc1 [Example 199]"
  limit-sign: "="
  IC50 (µg/mL): 1.2
- compound: "COc1cc(OCc2ccccc2)c(Cl)cc1NC(=S)Nc1ccc(NC(C)=O)cc1 [Example 836]"
  limit-sign: "="
  IC50 (µg/mL): 8
- compound: "COc1ccc(NC(=S)Nc2ccc(NC(C)=O)cc2)c(OC)c1Cl [Example 179]"
  limit-sign: "="
  IC50 (µg/mL): 5
- compound: "CC(=O)Nc1ccc(NC(=S)Nc2ccc(N(C)C3CCN(Cc4ccccc4)C3)c(Cl)c2)cc1 (stereo not drawn) [Example 843]"
  limit-sign: "="
  IC50 (µg/mL): 5
- compound: "COc1ccccc1NC(=S)Nc1ccc(NC(C)=O)cc1 [Example 105]"
  limit-sign: ">"
  IC50 (µg/mL): 50
- compound: "CC(=O)Nc1ccc(NC(=S)Nc2cc(Cl)c(OCC#N)c(Cl)c2)cc1 [Example 886]"
  limit-sign: "="
  IC50 (µg/mL): 25
- compound: "CC(=O)Nc1ccc(NC(=S)Nc2ccc(N3CCCC3)c(Cl)c2)cc1 [Example 242]"
  limit-sign: "="
  IC50 (µg/mL): 50
- compound: "CC(=O)Nc1ccc(NC(=S)Nc2ccc(C#N)c(Cl)c2)cc1 [Example 899]"
  limit-sign: "="
  IC50 (µg/mL): 10
- compound: "COc1cc(OC)c(NC(=S)Nc2ccc(NC(C)=O)c3ccccc23)cc1Cl [Example 329]"
  limit-sign: "="
  IC50 (µg/mL): 4
- compound: "COc1cc(OC)c(NC(=S)Nc2cccc(NC(C)=O)c2)cc1Cl [Example 100]"
  limit-sign: "="
  IC50 (µg/mL): 40
- compound: "CC(=O)Nc1ccc(NC(=S)Nc2ccc(OC3CCCCC3)c(Cl)c2)cc1 [Example 345]"
  limit-sign: ">"
  IC50 (µg/mL): 10
- compound: "CCCCCC(=O)Nc1ccc(NC(=S)Nc2cc(Br)c(OC)cc2OC)cc1 [Example 826]"
  limit-sign: "="
  IC50 (µg/mL): 3
- compound: "COc1cc(N2CCCCC2)c(NC(=S)Nc2ccc(NC(C)=O)cc2)cc1Cl [Example 229]"
  limit-sign: "="
  IC50 (µg/mL): 15
- compound: "CC(=O)Nc1ccc(NC(=S)Nc2ccc(C(F)(F)F)c(Cl)c2)cc1 [Example 908]"
  limit-sign: ">"
  IC50 (µg/mL): 10
- compound: "COc1cc(OC)c(NC(=S)Nc2cc(C)c(NC(C)=O)cc2Cl)cc1Cl [Example 326]"
  limit-sign: "="
  IC50 (µg/mL): 10
- compound: "CC(=O)Nc1ccc(NC(=S)Nc2ccc(NCCCN(C)C)c(Cl)c2)cc1 [Example 318]"
  limit-sign: ">"
  IC50 (µg/mL): 50
- compound: "CC(=O)Nc1ccc(NC(=S)Nc2ccc(OCC#N)c(Cl)c2)cc1 [Example 251]"
  limit-sign: ">"
  IC50 (µg/mL): 50
